# viability, T/C per record follows
System: 857933-349-R-J2-PDC complex spheroid viability;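 note: spheroids exposed to compounds for seven days before readout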
Measurement notes: Anticancer human tumor 857933-349-R-J2-PDC patient-derived colon adenocarcinoma cell line growth inhibition [POLQ]
Measurement context: second compound 3.16 µM; first compound 0.0316 µM; hits give low values
Measured metric: viability, T/C

>  <Molecule>
O=C(c1cc(Cc2n[nH]c(=O)c3ccccc23)ccc1F)N1CCN(C(=O)C2CC2)CC1 + Cc1cccc(N(C)C(=O)C2C(O)CCN2c2nc(C)cc(C(F)(F)F)c2C#N)c1

>  <Measured on>
857933-349-R-J2-PDC complex spheroid viability;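 note: spheroids exposed to compounds for seven days before readout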

>  <Value>
67%

$$$$
>  <Molecule>
COc1cccc2c1C(=O)c1c(O)c3c(c(O)c1C2=O)CC(O)(C(=O)CO)CC3OC1CC(N)C(O)C(C)O1 (stereo not drawn) + Nc1ccc(C#CCN(C(=O)Cc2ncc(C(F)(F)F)cc2C(F)(F)F)c2ccc(F)cc2)nn1

>  <Measured on>
857933-349-R-J2-PDC complex spheroid viability;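 note: spheroids exposed to compounds for seven days before readout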

>  <Value>
72.5%

$$$$
>  <Molecule>
CC[C@@]1(O)C(=O)OCc2c1cc1n(c2=O)Cc2cc3c(CN(C)C)c(O)ccc3nc2-1 + Nc1ccc(C#CCN(C(=O)Cc2ncc(C(F)(F)F)cc2C(F)(F)F)c2ccc(F)cc2)nn1

>  <Measured on>
857933-349-R-J2-PDC complex spheroid viability;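 note: spheroids exposed to compounds for seven days before readout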

>  <Value>
61.8%

$$$$
